The measured values listed here are drawn from PubChem BioAssay AID2765.

# Test system: MEF A1-2A-BIM cells, caspase 3/7 luminescence, 3 h
# Procedure Summary: inducers of caspase signal in A1-dependent MEFs – cell-based, luminescence, retest, A1 inhibitor project, dose response (AID 2765)
Activity calls are given as the source filed them.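 Rule for the calls: active = half-maximal concentration for the rise in caspase light signal at or below ten times the top tested dose; inconclusive = flat fit between 30% and 70% activity, or unreliable curve fit; inactive = the rest.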
Outcomes: active, inactive

{"columns": ["Compound", "Class Label"],
 "data": [
  ["CCOC(=O)C1=NOC(COc2ccccc2C=O)C1 (configuration not stated)", "inactive"],
  ["O=C1C(=O)N(Cc2ccco2)C(c2cccs2)/C1=C(\\O)c1cccc([N+](=O)[O-])c1 (configuration not stated)", "inactive"],
  ["Cc1ccc(C)c(NC(=O)COC(=O)c2cc3ccccc3oc2=O)c1", "inactive"],
  ["NC(=O)CCSC(=S)N1CCOCC1", "inactive"],
  ["COc1ccccc1N1CCN(C(c2ccccc2)c2nnnn2CCc2ccccc2)CC1 (configuration not stated)", "inactive"],
  ["CC(C)(C)CC(=O)Nc1nnc(SCC(=O)NC2CCCCC2)s1", "inactive"],
  ["O=C(/C=C/c1cccc(Cl)c1)c1ccc([N+](=O)[O-])o1", "inactive"],
  ["Cc1ccsc1CNC1CCCCC1", "inactive"],
  ["COc1cc2sc(-c3ccc(S(C)(=O)=O)cc3)c(C(=O)NCCCCO)c2cc1OC", "inactive"],
  ["O=[N+]([O-])/C=C/c1ccc2c(ccn2Cc2ccccc2)c1", "active"],
  ["O=C(COc1ccc(/C=N/NC(=O)c2cc3ccccc3o2)cc1Br)Nc1ccccc1", "active"],
  ["Cc1ccc(NC(=O)CSc2nc3nc(C)c(Br)cc3[nH]2)cc1F", "inactive"],
  ["CC(=O)Nc1ccc(NC(=O)C(C)OC(=O)/C=C/c2cn(-c3ccccc3)nc2-c2cccnc2)cc1 (configuration not stated)", "active"],
  ["CCCOC(=O)c1[nH]c2c(c1C)C(=O)CC(c1cccs1)C2 (configuration not stated)", "inactive"],
  ["CCN(CC)CCSc1nnc2c3ccccc3n(Cc3ccccc3)c2n1", "inactive"],
  ["FC(F)(F)c1cccc(Cc2noc(CN3CCCC(OCc4ccccn4)C3)n2)c1 (configuration not stated)", "inactive"],
  ["Cc1cccc(C)c1NC(=O)C(Cl)C(=O)c1ccccc1 (configuration not stated)", "inactive"],
  ["COC(=O)c1ccc(C(=O)OC)c(NC(=O)CSc2ccccn2)c1", "inactive"],
  ["Cc1cc(NC(=O)CN(C)C)c([N+](=O)[O-])cc1C", "inactive"],
  ["C/C(=N\\NC(=O)CCC(=O)NCc1ccccc1)c1ccco1", "inactive"],
  ["CCS(=O)(=O)c1ncc(Cl)c(C(=O)Nc2ccc(S(=O)(=O)N(C)c3ccccc3)cc2)n1", "inactive"],
  ["COc1ccccc1C(=O)NCCC(=O)N1CCN(S(=O)(=O)c2ccc(Cl)cc2)CC1", "inactive"]
]}

* * *

# System: MEF A1-2A-BIM cells, caspase 3/7 luminescence, 3 h
# Procedure Summary: inducers of caspase signal in A1-dependent MEFs – cell-based, luminescence, retest, A1 inhibitor project, dose response (AID 2765)
The source made the active and inactive calls.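 How the source made its calls: active means half-maximal concentration for the rise in caspase light signal at or below ten times the top tested dose; inconclusive means flat fit between 30% and 70% activity, or unreliable curve fit; inactive means the rest.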
Quantity Kind: EC50

{"columns": ["Molecule", "Target", "Observed Value"],
 "data": [
  ["CCN1CCN(c2nc3ccccc3nc2NS(=O)(=O)c2ccc(NC(C)=O)cc2)CC1", "MEF A1-2A-BIM cells, caspase 3/7 luminescence, 3 h", "> 35 µM (inactive)"],
  ["COc1ccc(C(=O)Sc2ccc(Cl)cc2)cc1OC", "MEF A1-2A-BIM cells, caspase 3/7 luminescence, 3 h", "> 35 µM (inactive)"],
  ["COc1ccc(S(=O)(=O)Nc2c(C)n(C)n(-c3ccccc3)c2=O)cc1", "MEF A1-2A-BIM cells, caspase 3/7 luminescence, 3 h", "> 35 µM (inactive)"],
  ["COc1ccc(C2Nc3ccc4ccccc4c3-c3c2c(=O)oc2ccccc32)cc1 (stereo not given)", "MEF A1-2A-BIM cells, caspase 3/7 luminescence, 3 h", "11 µM"],
  ["O=[N+]([O-])/C=C/c1cn(Cc2ccc(Cl)cc2)c2ccccc12", "MEF A1-2A-BIM cells, caspase 3/7 luminescence, 3 h", "21.6 µM"]
]}
